test system: A. baumannii; assay: MIC, broth microdilution, CDC/FDA Antibiotic Resistance Isolate Bank (Example 7, Tables 9, 13, 14); format: cell-based, Acinetobacter baumannii; conditions: Acinetobacter baumannii, A. baumannii KUB No. 5580, AR Bank #83; OXA-23, OXA-69, NDM-1; read-out: MIC
Outcome measure: MIC (µg/mL)
Respond with the bare value in µg/mL.

CN(C)c1cc(NC(=O)CNC(C)(C)C)c(O)c2c1C[C@H]1C[C@H]3[C@H](N(C)C)C(O)=C(C(N)=O)C(=O)[C@@]3(O)C(O)=C1C2=O
0.5

Note: attention shifts to another entry.
## Task Recorded MIC for CC(C)(O/N=C(\C(=O)N[C@@H]1C(=O)N2C(C(=O)[O-])=C(C[N+]3(CCNC(=O)c4ccc(O)c(O)c4Cl)CCCC3)CS[C@H]12)c1csc(N)n1)C(=O)O , please?
## Result 16
